The measured values listed here are drawn from PubChem BioAssay AID2060495.

test system: 521955-158-R2-J5-PDC complex spheroid viability; assay: Anticancer human tumor 521955-158-R2-J5-PDC patient-derived pancreatic carcinoma cell line growth inhibition [GQUAD]; settings: second compound 1 µM; first compound 0.316 µM; stronger effect = lower value
Outcome measure: viability, T/C (%)

[[record]]
molecule = "O=C(NO)c1cnc(N2CCN(S(=O)(=O)c3ccc4ccccc4c3)CC2)nc1 + CN(C)c1ccc(Nc2c3ccc(NC(=O)CCN4CCCC4)cc3nc3cc(NC(=O)CCN4CCCC4)ccc23)cc1"
outcome_measure = "viability, T/C"
unit_abbreviation = "%"
recorded_measurement = 60.9

[[record]]
molecule = "COc1ncnc(C2CC2)c1-c1ncc2cnn(Cc3ccc(-c4nc(C(F)(F)F)cn4C(C)C)cc3)c2n1 + CN(C)c1ccc(Nc2c3ccc(NC(=O)CCN4CCCC4)cc3nc3cc(NC(=O)CCN4CCCC4)ccc23)cc1"
outcome_measure = "viability, T/C"
unit_abbreviation = "%"
recorded_measurement = 115

[[record]]
molecule = "CC[C@@]1(O)C(=O)OCc2c1cc1n(c2=O)Cc2cc3c(CN(C)C)c(O)ccc3nc2-1 + CN(C)c1ccc(Nc2c3ccc(NC(=O)CCN4CCCC4)cc3nc3cc(NC(=O)CCN4CCCC4)ccc23)cc1"
outcome_measure = "viability, T/C"
unit_abbreviation = "%"
recorded_measurement = 24.9

[[record]]
molecule = "O=C(NO)c1cnc(N2CCN(S(=O)(=O)c3ccc4ccccc4c3)CC2)nc1 + Cc1cnc(CNC(=O)c2c(=O)c3ccc(N4CCCN(C)CC4)nc3n3c2sc2ccccc23)cn1"
outcome_measure = "viability, T/C"
unit_abbreviation = "%"
recorded_measurement = 12.9

[[record]]
molecule = "O=c1[nH]cc(F)c(=O)[nH]1 + Cc1[nH]c2ccc(F)cc2c1-c1nc2c3cccnc3c3ncccc3c2[nH]1"
outcome_measure = "viability, T/C"
unit_abbreviation = "%"
recorded_measurement = 91.1


###

test system: 521955-158-R2-J5-PDC complex spheroid viability; experiment: Anticancer human tumor 521955-158-R2-J5-PDC cell line growth inhibition [GQUAD]; details: second compound 0.0316 µM; first compound 0.0999 µM; active means viability on the fitted dose curve at most 10% of control; inactive means the rest;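 also: spheroids exposed to agents for one week before reading; 100% = DMSO vehicle control viability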
Outcome codes: 1 for active, 0 for inactive

[[record]]
compound = "Cn1ncnc1[C@H]1c2n[nH]c(=O)c3cc(F)cc(c23)N[C@@H]1c1ccc(F)cc1 + Cc1cnc(CNC(=O)c2c(=O)c3ccc(N4CCCN(C)CC4)nc3n3c2sc2ccccc23)cn1"
cat = 0

[[record]]
compound = "Cc1[nH]c2ccccc2c1CCNCc1ccc(/C=C/C(=O)NO)cc1 + Cc1[nH]c2ccc(F)cc2c1-c1nc2c3cccnc3c3ncccc3c2[nH]1"
cat = 0

[[record]]
compound = "Cc1[nH]c2ccccc2c1CCNCc1ccc(/C=C/C(=O)NO)cc1 + CN(C)c1ccc(Nc2c3ccc(NC(=O)CCN4CCCC4)cc3nc3cc(NC(=O)CCN4CCCC4)ccc23)cc1"
cat = 0

[[record]]
compound = "CCc1c2c(nc3ccc(O)cc13)-c1cc3c(c(=O)n1C2)COC(=O)[C@]3(O)CC + CN(C)c1ccc(Nc2c3ccc(NC(=O)CCN4CCCC4)cc3nc3cc(NC(=O)CCN4CCCC4)ccc23)cc1"
cat = 0

[[record]]
compound = "CC[C@@]1(O)C(=O)OCc2c1cc1n(c2=O)Cc2cc3c(CN(C)C)c(O)ccc3nc2-1 + Cc1cnc(CNC(=O)c2c(=O)c3ccc(N4CCCN(C)CC4)nc3n3c2sc2ccccc23)cn1"
cat = 0

[[record]]
compound = "Cn1ncnc1[C@H]1c2n[nH]c(=O)c3cc(F)cc(c23)N[C@@H]1c1ccc(F)cc1 + Cc1[nH]c2ccc(F)cc2c1-c1nc2c3cccnc3c3ncccc3c2[nH]1"
cat = 0

[[record]]
compound = "CCc1c2c(nc3ccc(O)cc13)-c1cc3c(c(=O)n1C2)COC(=O)[C@]3(O)CC + Cc1[nH]c2ccc(F)cc2c1-c1nc2c3cccnc3c3ncccc3c2[nH]1"
cat = 1

